For each of the compounds below, state its pIC50.
# study_target: TRKA kinase (Homo sapiens (Human))
# Sequence (P04629 33-796): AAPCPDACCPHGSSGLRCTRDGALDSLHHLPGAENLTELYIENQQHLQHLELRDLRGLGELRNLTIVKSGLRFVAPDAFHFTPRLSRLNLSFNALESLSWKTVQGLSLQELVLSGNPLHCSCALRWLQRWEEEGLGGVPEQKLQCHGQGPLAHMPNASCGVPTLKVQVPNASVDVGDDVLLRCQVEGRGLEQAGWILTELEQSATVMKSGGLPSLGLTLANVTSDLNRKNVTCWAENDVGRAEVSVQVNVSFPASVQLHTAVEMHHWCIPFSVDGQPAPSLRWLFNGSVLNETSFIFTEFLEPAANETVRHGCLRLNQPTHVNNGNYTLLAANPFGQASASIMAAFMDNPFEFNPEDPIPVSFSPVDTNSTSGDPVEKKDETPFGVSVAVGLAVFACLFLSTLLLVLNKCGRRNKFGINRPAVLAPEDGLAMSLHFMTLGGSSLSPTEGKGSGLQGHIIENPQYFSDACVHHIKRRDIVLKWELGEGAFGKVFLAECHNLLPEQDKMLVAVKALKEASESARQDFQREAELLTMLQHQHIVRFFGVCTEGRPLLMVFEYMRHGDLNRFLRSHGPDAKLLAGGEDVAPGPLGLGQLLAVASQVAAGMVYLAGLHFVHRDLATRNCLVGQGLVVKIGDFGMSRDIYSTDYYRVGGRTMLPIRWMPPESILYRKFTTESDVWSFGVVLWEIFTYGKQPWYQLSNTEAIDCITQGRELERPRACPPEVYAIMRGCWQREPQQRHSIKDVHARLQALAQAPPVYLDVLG
pIC50: −log10 of the molar value.

• CCOc1ccn(Cc2ccccc2)c(=O)c1C(=O)Nc1ccc(Oc2ccnc3cc(OC)c4c(c23)OCCO4)c(F)c1 [Example 117] = 6.30 to 7.30
• CCOc1ccn(-c2ccc(F)cc2)c(=O)c1C(=O)Nc1ccc(Oc2ccnc3cc(OC4COC4)c4c(c23)OCCO4)c(F)c1 [Example 64] = > 7.30

I need pIC50 for every entry listed below, if you could help.
1. CCOc1ccn(-c2ccc(F)cc2)c(=O)c1C(=O)Nc1ccc(Oc2ccnc3cc(OCCCN4CCC(C)(O)CC4)c4c(c23)OCCO4)c(F)c1 [Example 69]
2. COc1ccn(-c2ccc(F)cc2)c(=O)c1C(=O)Nc1ccc(Oc2ccnc3cc(OCCCN4CCOCC4)c4c(c23)OCCO4)c(F)c1 [Example 21]

Solution:
["> 7.30", "> 7.30"]

Reference for the values: patent US12202835B2
